TARGET_ENTITY: ROMK (Kir1.1) channel (Homo sapiens (Human))
Sequence (P48048 whole entry): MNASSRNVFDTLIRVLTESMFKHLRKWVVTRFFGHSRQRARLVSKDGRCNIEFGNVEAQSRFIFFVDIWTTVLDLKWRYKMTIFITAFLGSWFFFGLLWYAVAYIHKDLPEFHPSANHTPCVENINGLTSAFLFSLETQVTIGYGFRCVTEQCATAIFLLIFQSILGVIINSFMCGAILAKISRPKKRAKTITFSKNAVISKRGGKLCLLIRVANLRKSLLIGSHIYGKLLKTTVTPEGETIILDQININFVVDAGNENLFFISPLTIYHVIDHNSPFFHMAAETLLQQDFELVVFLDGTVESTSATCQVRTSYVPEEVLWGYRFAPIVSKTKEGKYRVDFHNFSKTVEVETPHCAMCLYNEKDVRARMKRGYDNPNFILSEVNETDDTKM
EXPERIMENTAL_PROTOCOL: Thallium Flux Assay
pIC50: −log10 of the molar value.
QUANTITY_MEASURED: pIC50

[
  {
    "COMPOUND": "CC1=C(N2CC[C@]3(CC[C@H](NC[C@H](O)c4ccc5c(c4C)COC5=O)CC3)C2=O)COC1=O",
    "QUANTITY_MEASURED": "pIC50",
    "READOUT_VALUE": 6.55
  },
  {
    "COMPOUND": "CC1=C(N2CC[C@]3(CC[C@@H](N(C)Cc4ccc5c(c4)CCc4nnnn4-5)CC3)C2=O)COC1=O",
    "QUANTITY_MEASURED": "pIC50",
    "READOUT_VALUE": 7.49
  },
  {
    "COMPOUND": "CC1=C(N2CC[C@]3(CC[C@H](N(C)[C@H](C)c4ccc(-n5cnnn5)nc4)CC3)C2=O)COC1=O",
    "QUANTITY_MEASURED": "pIC50",
    "READOUT_VALUE": 6.29
  },
  {
    "COMPOUND": "CC1=C(N2CC[C@]3(CC[C@@H](NCc4ccc(-n5ncnn5)cc4)CC3)C2=O)COC1=O",
    "QUANTITY_MEASURED": "pIC50",
    "READOUT_VALUE": 8.48
  },
  {
    "COMPOUND": "CC1=C(N2CC[C@]3(CC[C@@H](NCc4ccc(-n5ncnn5)nn4)CC3)C2=O)COC1=O",
    "QUANTITY_MEASURED": "pIC50",
    "READOUT_VALUE": 8.03
  },
  {
    "COMPOUND": "CC1=C(N2CC[C@]3(CC[C@@H](NCCc4ccc5c(c4)COC5=O)CC3)C2=O)COC1=O",
    "QUANTITY_MEASURED": "pIC50",
    "READOUT_VALUE": 7.36
  },
  {
    "COMPOUND": "CC1=C(N2CC[C@]3(CC[C@@H](NCc4ccc5c(c4)-c4nnnn4C5)CC3)C2=O)COC1=O",
    "QUANTITY_MEASURED": "pIC50",
    "READOUT_VALUE": 6.26
  },
  {
    "COMPOUND": "CC1=C(N2CC[C@]3(CC[C@](C)(NCc4ccc(-n5cnnn5)nn4)CC3)C2=O)COC1=O",
    "QUANTITY_MEASURED": "pIC50",
    "READOUT_VALUE": 7.15
  },
  {
    "COMPOUND": "CC1=C(N2CC[C@]3(CC[C@@H](N(C)[C@@H](CO)c4ccc(-n5cnnn5)nc4)CC3)C2=O)COC1=O",
    "QUANTITY_MEASURED": "pIC50",
    "READOUT_VALUE": 6.52
  },
  {
    "COMPOUND": "CC1=C(N2CC[C@]3(CC[C@H](N(CC(=O)N(C)C)Cc4ccc(-n5cnnn5)nc4)CC3)C2=O)COC1=O",
    "QUANTITY_MEASURED": "pIC50",
    "READOUT_VALUE": 6.92
  },
  {
    "COMPOUND": "CC1=C(N2CC[C@]3(CC[C@H](N(CC(N)=O)Cc4ccc(-n5cnnn5)nc4)CC3)C2=O)COC1=O",
    "QUANTITY_MEASURED": "pIC50",
    "READOUT_VALUE": 6.96
  },
  {
    "COMPOUND": "CC1=C(N2C(=O)[C@]3(CC[C@@H](NCc4ccc5c(c4)Cn4nnnc4-5)CC3)C[C@H]2C)COC1=O",
    "QUANTITY_MEASURED": "pIC50",
    "READOUT_VALUE": 7.82
  },
  {
    "COMPOUND": "CCCN(C[C@H](O)c1ccc2c(c1C)COC2=O)C1CCC2(CC1)CCN(C1=C(C)C(=O)OC1)C2=O (stereo partly drawn)",
    "QUANTITY_MEASURED": "pIC50",
    "READOUT_VALUE": 7.00
  },
  {
    "COMPOUND": "CC1C[C@]2(CC[C@@H](NCc3cnc(-n4cnnn4)cn3)CC2)C(=O)N1C1=CC(=O)OC1 (stereo partly drawn) [Example 49]",
    "QUANTITY_MEASURED": "pIC50",
    "READOUT_VALUE": 6.62
  },
  {
    "COMPOUND": "CC1=C(N2CC[C@]3(CC[C@@H](N(C)Cc4ccc5c(c4F)Cn4nnnc4-5)CC3)C2=O)COC1=O",
    "QUANTITY_MEASURED": "pIC50",
    "READOUT_VALUE": 7.64
  }
]

---

TARGET_ENTITY: UniProtKB P48048
EXPERIMENTAL_PROTOCOL: Thallium Flux Assay
pIC50: −log10 of the molar value.
Please mark T if the recorded pIC50 is equal to or greater than 7, and F if it falls below.

[
  {
    "MOLECULE": "CC1=C(N2CC[C@]3(CC[C@@](C)(N(C)Cc4cnc(-n5cnnn5)cn4)CC3)C2=O)COC1=O [Example 129]",
    "CLASS_NAME": "T"
  },
  {
    "MOLECULE": "CC1=C(N2CC[C@]3(CC[C@H](N(C)[C@@H](CO)c4ccc(-n5cnnn5)nc4)CC3)C2=O)COC1=O [Example 101]",
    "CLASS_NAME": "F"
  },
  {
    "MOLECULE": "CCN(Cc1ccc(-n2cnnn2)cn1)[C@H]1CC[C@]2(CCN(C3=C(C)C(=O)OC3)C2=O)CC1 [Example 138]",
    "CLASS_NAME": "T"
  },
  {
    "MOLECULE": "CC1=C(N2CC[C@]3(CC[C@@H](NCc4ccc(-n5cnnn5)cc4)CC3)C2=O)COC1=O [Example 44]",
    "CLASS_NAME": "T"
  },
  {
    "MOLECULE": "CC1=C(N2CC[C@]3(CC[C@@H](NCc4nnc(-n5cnnn5)cc4C)CC3)C2=O)COC1=O [Example 12]",
    "CLASS_NAME": "T"
  },
  {
    "MOLECULE": "C[C@H]1C[C@]2(CC[C@H](NCc3cnc(-n4cnnn4)cn3)CC2)C(=O)N1C1=CC(=O)OC1 [Example 28]",
    "CLASS_NAME": "F"
  },
  {
    "MOLECULE": "CC1=C(N2CC[C@]3(CC[C@H](NCc4ccc(-n5cnnn5)cn4)CC3)C2=O)COC1=O [Example 7A]",
    "CLASS_NAME": "T"
  },
  {
    "MOLECULE": "CC1=C(N2C(=O)[C@]3(CC[C@H](N(C)Cc4ccc5c(c4)Cn4nnnc4-5)CC3)C[C@@H]2C)COC1=O [Example 120]",
    "CLASS_NAME": "T"
  },
  {
    "MOLECULE": "CC1=C(N2CC[C@]3(CC[C@H](N(C)[C@H](CO)c4ccc(-n5cnnn5)nc4)CC3)C2=O)COC1=O [Example 85]",
    "CLASS_NAME": "F"
  },
  {
    "MOLECULE": "CC1=C(N2CC[C@]3(CC[C@@H](NCc4ccc(-n5cnnn5)cn4)CC3)C2=O)COC1=O [Example 7B]",
    "CLASS_NAME": "F"
  }
]

---

TARGET_ENTITY: ROMK (Kir1.1) channel (Homo sapiens (Human))
EXPERIMENTAL_PROTOCOL: Thallium Flux Assay
The entries below are paired with their reported IC50.

[
  {
    "COMPOUND": "CC1=C(N2CC[C@]3(CC[C@H](N(C)Cc4ccc(-n5ncnn5)cc4)CC3)C2=O)COC1=O",
    "IC50 / nM": 300
  },
  {
    "COMPOUND": "CC1=C(N2CC[C@]3(CC[C@@H](N[C@H](C)c4ccc5c(c4)CCc4nnnn4-5)CC3)C2=O)COC1=O",
    "IC50 / nM": 330
  },
  {
    "COMPOUND": "CC1=C(N2CC[C@]3(CC[C@@H](N[C@@H](C)c4ccc5c(c4)Cn4nnnc4-5)CC3)C2=O)COC1=O",
    "IC50 / nM": 260
  },
  {
    "COMPOUND": "CC1=C(N2CC[C@]3(CC[C@@H](N(C)Cc4ccc5c(c4)Cn4nnnc4-5)CC3)C2=O)COC1=O [Example 90]",
    "IC50 / nM": 22
  },
  {
    "COMPOUND": "CCN(Cc1ccc2c(c1C)COC2=O)C1CCC2(CC1)CCN(C1=C(C)C(=O)OC1)C2=O (stereo not shown)",
    "IC50 / nM": 490
  },
  {
    "COMPOUND": "CC1=C(N2CCC3(CCC(N(C)C[C@H](O)c4ccc5c(c4C)COC5=O)CC3)C2=O)COC1=O (stereo partly shown)",
    "IC50 / nM": 64
  },
  {
    "COMPOUND": "CCN(Cc1ccc2c(c1)Cn1nnnc1-2)[C@H]1CC[C@@]2(CCN(C3=C(C)C(=O)OC3)C2=O)CC1",
    "IC50 / nM": 36
  }
]
